details: in isopentanol, 299.15 K
QUANTITY NAME: solubility (mole fraction)

Exam item: Look up solubility (mole fraction): NS(=O)(=O)c1ccccc1
Marked response: 0.00999

---

settings: in cyclopentanone, 293.75 K
QUANTITY NAME: solubility (mole fraction)

Exam item: Fill in: solubility (mole fraction) of NS(=O)(=O)c1ccccc1 is ___
Marked response: 0.167

---

conditions: in n-butanol, 313.35 K
QUANTITY NAME: solubility (mole fraction)

Exam item: Query: solubility (mole fraction); subject: NS(=O)(=O)c1ccccc1
Marked response: 0.0226

---

details: in isobutanol, 289.15 K
QUANTITY NAME: solubility (mole fraction)
Enter a number only.

Exam item: State the recorded solubility (mole fraction) for this entry: NS(=O)(=O)c1ccccc1
Marked response: 0.00666

---

details: in n-butanol, 293.75 K
QUANTITY NAME: solubility (mole fraction)
Form field (numeric): enter value without unit.

Exam item: For the compound NS(=O)(=O)c1ccccc1 , what solubility (mole fraction) is on record?
Marked response: 0.011

---

conditions: in acetonitrile, 303.15 K
QUANTITY NAME: solubility (mole fraction)
// response body must contain only the number

Exam item: Which solubility (mole fraction) is listed for NS(=O)(=O)c1ccccc1 ?
Marked response: 0.0723

---

conditions: in ethyl formate, 303.15 K
QUANTITY NAME: solubility (mole fraction)

Exam item: What does the record list as solubility (mole fraction) for NS(=O)(=O)c1ccccc1 ?
Marked response: 0.0367

---

conditions: in ethyl acetate, 273.15 K
QUANTITY NAME: solubility (mole fraction)
Number, no unit, nothing else.

Exam item: Give its solubility (mole fraction) value. Item: NS(=O)(=O)c1ccccc1
Marked response: 0.0325

---

conditions: in isobutanol, 313.35 K
QUANTITY NAME: solubility (mole fraction)
Kindly provide the number alone.

Exam item: Bench note: what solubility (mole fraction) did NS(=O)(=O)c1ccccc1 show?
Marked response: 0.0176

---

settings: in n-propanol, 273.15 K
QUANTITY NAME: solubility (mole fraction)
Answer using only a numeral; do not append any unit.

Exam item: What does the data say about its solubility (mole fraction)? Entry: NS(=O)(=O)c1ccccc1
Marked response: 0.00806

---

settings: in cyclopentanone, 319.15 K
QUANTITY NAME: solubility (mole fraction)
Answer using only a numeral; do not append any unit.

Exam item: # lookup: solubility (mole fraction) of NS(=O)(=O)c1ccccc1
Marked response: 0.228

---

details: in cyclohexanone, 319.15 K
QUANTITY NAME: solubility (mole fraction)
Kindly provide the number alone.

Exam item: Consider the molecule shown here: NS(=O)(=O)c1ccccc1 What is its recorded solubility (mole fraction)?
Marked response: 0.195

---

conditions: in cyclohexanone, 283.85 K
QUANTITY NAME: solubility (mole fraction)
// return a plain number; no unit text

Exam item: Given the molecule NS(=O)(=O)c1ccccc1 , what is its reported solubility (mole fraction)?
Marked response: 0.126

---

conditions: in cyclohexanone, 313.35 K
QUANTITY NAME: solubility (mole fraction)
Could you respond with only the numeric value?

Exam item: Can you share its solubility (mole fraction)? I mean this compound: NS(=O)(=O)c1ccccc1
Marked response: 0.181

---

conditions: in cyclopentanone, 313.35 K
QUANTITY NAME: solubility (mole fraction)
Form rule: numeric answer, no unit written next to it.

Exam item: Any idea what solubility (mole fraction) was measured for NS(=O)(=O)c1ccccc1 ?
Marked response: 0.21

---

details: in n-propanol, 324.45 K
QUANTITY NAME: solubility (mole fraction)
# output: bare number, no unit

Exam item: Value lookup for solubility (mole fraction); key = NS(=O)(=O)c1ccccc1
Marked response: 0.0423

---

settings: in isopentanol, 289.15 K
QUANTITY NAME: solubility (mole fraction)
Please respond with just the number, no unit label.

Exam item: // query solubility (mole fraction) value for entry NS(=O)(=O)c1ccccc1
Marked response: 0.00683

---

settings: in acetonitrile, 273.15 K
QUANTITY NAME: solubility (mole fraction)
Note: the reply should be a number with no unit written.

Exam item: Can you share its solubility (mole fraction)? I mean this compound: NS(=O)(=O)c1ccccc1
Marked response: 0.0348

---

details: in ethanol, 317.65 K
QUANTITY NAME: solubility (mole fraction)
Field format: numeric only.

Exam item: I'd like to know its solubility (mole fraction). The compound in question is NS(=O)(=O)c1ccccc1
Marked response: 0.0547

---

settings: in ethyl acetate, 303.15 K
QUANTITY NAME: solubility (mole fraction)
Number, no unit, nothing else.

Exam item: For NS(=O)(=O)c1ccccc1 , what is its reported solubility (mole fraction)?
Marked response: 0.0563

---

conditions: in n-butanol, 279.15 K
QUANTITY NAME: solubility (mole fraction)
Give the figure only, with no unit attached.

Exam item: What value of measured solubility (mole fraction) is listed for NS(=O)(=O)c1ccccc1 ?
Marked response: 0.00679

---

settings: in ethanol, 283.45 K
QUANTITY NAME: solubility (mole fraction)
Please reply with the value in numeric form only.

Exam item: Give its solubility (mole fraction) value. Item: NS(=O)(=O)c1ccccc1
Marked response: 0.0199

---

details: in acetone, 283.45 K
QUANTITY NAME: solubility (mole fraction)
Quick one: just the number, no unit, thanks!

Exam item: Fill in the blank: the reported solubility (mole fraction) of NS(=O)(=O)c1ccccc1 is ____.
Marked response: 0.13

---

conditions: in cyclopentanone, 289.15 K
QUANTITY NAME: solubility (mole fraction)
Give the figure only, with no unit attached.

Exam item: Report solubility (mole fraction) for NS(=O)(=O)c1ccccc1 please.
Marked response: 0.16

---

conditions: in isopentanol, 303.75 K
QUANTITY NAME: solubility (mole fraction)
// keep it numeric: no unit symbol after the value

Exam item: GET /values?readout=solubility (mole fraction)&item= NS(=O)(=O)c1ccccc1
Marked response: 0.0119

---

settings: in methanol, 308.15 K
QUANTITY NAME: solubility (mole fraction)
// no unit string in output, number only

Exam item: Any idea what solubility (mole fraction) was measured for NS(=O)(=O)c1ccccc1 ?
Marked response: 0.0699

---

conditions: in methanol, 273.15 K
QUANTITY NAME: solubility (mole fraction)
Just the number, please, no unit attached.

Exam item: # get_value(readout='solubility (mole fraction)', item= NS(=O)(=O)c1ccccc1 )
Marked response: 0.0295

---

conditions: in acetone, 288.95 K
QUANTITY NAME: solubility (mole fraction)
Returns: the value as a bare number; no unit string appended.

Exam item: I'd like to know its solubility (mole fraction). The compound in question is NS(=O)(=O)c1ccccc1
Marked response: 0.138

---

conditions: in dichloromethane, 308.15 K
QUANTITY NAME: solubility (mole fraction)
// no unit string in output, number only

Exam item: Requested field: solubility (mole fraction). Item: NS(=O)(=O)c1ccccc1
Marked response: 0.00602

---

conditions: in methyl acetate, 298.85 K
QUANTITY NAME: solubility (mole fraction)

Exam item: Endpoint output: solubility (mole fraction) of NS(=O)(=O)c1ccccc1 . Value?
Marked response: 0.0677

---

details: in methanol, 298.85 K
QUANTITY NAME: solubility (mole fraction)
Hey, just send me the number, nothing else.

Exam item: # lookup: solubility (mole fraction) of NS(=O)(=O)c1ccccc1
Marked response: 0.0536

---

settings: in acetone, 273.15 K
QUANTITY NAME: solubility (mole fraction)

Exam item: Suppose we examine the molecule NS(=O)(=O)c1ccccc1 ; what solubility (mole fraction) value has been reported?
Marked response: 0.117

---

conditions: in ethanol, 279.15 K
QUANTITY NAME: solubility (mole fraction)

Exam item: Bench note: what solubility (mole fraction) did NS(=O)(=O)c1ccccc1 show?
Marked response: 0.0182

---

details: in ethyl formate, 308.15 K
QUANTITY NAME: solubility (mole fraction)

Exam item: Recorded solubility (mole fraction) of NS(=O)(=O)c1ccccc1 , please.
Marked response: 0.0416

---

conditions: in acetonitrile, 293.25 K
QUANTITY NAME: solubility (mole fraction)
I'd appreciate a reply containing only the number, no unit.

Exam item: Fill in the blank: the reported solubility (mole fraction) of NS(=O)(=O)c1ccccc1 is ____.
Marked response: 0.0568

---

conditions: in methyl acetate, 293.25 K
QUANTITY NAME: solubility (mole fraction)
I only need the number, thanks.

Exam item: So what's the measured solubility (mole fraction) for this one? NS(=O)(=O)c1ccccc1
Marked response: 0.0606

---

conditions: in dichloromethane, 273.15 K
QUANTITY NAME: solubility (mole fraction)
In your answer, state the number alone without any accompanying words.

Exam item: solubility (mole fraction) lookup needed for NS(=O)(=O)c1ccccc1 , thanks.
Marked response: 0.00134

---

conditions: in ethanol, 273.15 K
QUANTITY NAME: solubility (mole fraction)

Exam item: Endpoint output: solubility (mole fraction) of NS(=O)(=O)c1ccccc1 . Value?
Marked response: 0.0159
